Assay notes: Microsomal stability analysis, rat
Assay type: in vitro ADME
Experimental context: pH 7.4; rat liver microsomes, 1 μM test compound; read-out: Microsomal Stability t1/2
// reported half-life at 1 μM for each item listed

Worked examples follow.
{"columns": ["Compound", "half-life at 1 μM"],
 "data": [
  ["Fc1ccc(-c2ccc(C3CCCN(CC4CCCC4)C3)cc2)cc1 (centres unmarked)", "13 min"],
  ["FC(F)(F)c1ccc(-c2ccc(C3CCCN(CC4CCCC4)C3)cc2)cc1 (centres unmarked)", "17 min"],
  ["Fc1ccc(-c2ccc(C3CCCN(CC4CC4)C3)cc2)cc1 (centres unmarked)", "10 min"]
]}

What does the data say about its half-life at 1 μM? Entry: c1ccc(-c2ccc(C3CCCN(CC4CCCC4)C3)cc2)cc1 (centres unmarked)
13 min

Now consider Clc1ccc(-c2ccc(C3CCCN(CC4CCCC4)C3)cc2)cc1 (centres unmarked) .
15 min

====

Assay notes: Microsomal stability analysis, mouse
Assay type: in vitro ADME
Experimental context: pH 7.4; mouse liver microsomes, 1 μM test compound; read-out: Microsomal Stability t1/2
Result type: half-life at 1 μM (h)
Just the number in h, nothing appended.

Worked examples follow.
{"columns": ["Molecule", "Measurement unit", "half-life at 1 μM"],
 "data": [
  ["Fc1ccc(-c2ccc(C3CCCN(CC4CCCC4)C3)cc2)cc1 (centres unmarked)", "h", 1.12],
  ["Clc1ccc(-c2ccc(C3CCCN(CC4CCCC4)C3)cc2)cc1 (centres unmarked)", "h", 1.27],
  ["FC(F)(F)c1ccc(-c2ccc(C3CCCN(CC4CCCC4)C3)cc2)cc1 (centres unmarked)", "h", 1.02],
  ["Fc1ccc(-c2ccc(C3CCCN(CC4CC4)C3)cc2)cc1 (centres unmarked)", "h", 0.417]
]}

Note: attention shifts to another entry.
What does the data say about its half-life at 1 μM? Entry: c1ccc(-c2ccc(C3CCCN(CC4CCCC4)C3)cc2)cc1 (centres unmarked)
0.467

====

Assay notes: In vivo PK in mice (IV and PO)
Experimental context: male, C57BL/6, mouse, plasma, PO 15 mg/kg
Result type: half-life

What does the data say about its half-life? Entry: Cc1cc(-c2ccc(F)cc2)ccc1C1CCCN(C2CCCC2)C1 (stereo not shown) [Compound 1,041]
9.8 h

====

Measured on: PCSK9 (Homo sapiens, UniProt Q8NBP7)
Construct: purchased Cayman Chemical 20631
Sequence (Q8NBP7 153-692): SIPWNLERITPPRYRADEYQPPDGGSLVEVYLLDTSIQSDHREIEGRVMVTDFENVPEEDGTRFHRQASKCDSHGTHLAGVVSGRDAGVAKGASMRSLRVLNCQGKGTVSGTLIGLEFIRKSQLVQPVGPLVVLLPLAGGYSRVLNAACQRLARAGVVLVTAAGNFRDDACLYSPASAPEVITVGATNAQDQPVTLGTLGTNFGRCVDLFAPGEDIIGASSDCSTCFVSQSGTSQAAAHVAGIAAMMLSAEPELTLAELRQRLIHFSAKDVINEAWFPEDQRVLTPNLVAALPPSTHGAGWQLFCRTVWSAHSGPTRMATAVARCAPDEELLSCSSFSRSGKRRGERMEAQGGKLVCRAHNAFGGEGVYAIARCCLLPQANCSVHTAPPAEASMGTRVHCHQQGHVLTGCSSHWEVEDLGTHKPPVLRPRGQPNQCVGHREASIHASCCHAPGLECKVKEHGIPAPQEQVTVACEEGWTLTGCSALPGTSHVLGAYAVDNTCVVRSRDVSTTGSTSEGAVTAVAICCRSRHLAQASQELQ
Assay notes: Fluorescent-LDL uptake analysis by flow cytometric analysis
Type: cell-based
Result type: EC50

{"columns": ["Molecule", "EC50"],
 "data": [
  ["Cc1cc(C2CCCN(C3CCCC3)C2)ccc1-c1ccc(Cl)cc1 (centres unmarked) [1,040]", "500 to 1000 nM"],
  ["Fc1ccc(-c2ccc(C3CCCN(Cc4ccccc4)C3)cc2)cc1 (centres unmarked) [Compound 1,035]", "500 to 1000 nM"],
  ["FC(F)(F)c1cccc(-c2ccc(C3CCCN(CC4CCCC4)C3)cc2)c1 (centres unmarked) [1,013]", "> 1000 nM"],
  ["Fc1ccc(-c2ccc(C3CCCN(CC4CCCC4)C3)cc2)cc1 (centres unmarked) [Compound 1,009]", "< 500 nM"],
  ["Clc1ccc(-c2ccc(C3CCCN(CC4CCCC4)C3)cc2)cc1 (centres unmarked) [Compound 1,010]", "< 500 nM"]
]}

What does the data say about its EC50? Entry: FC(F)(F)c1cc(C2CCCN(CC3CCOC3)C2)ccc1-c1ccccc1 (centres unmarked) [1,027]
> 1000 nM

Now consider Fc1cc(F)cc(-c2ccc(C3CCCN(CC4CCCC4)C3)cc2)c1 (centres unmarked) [1,029] .
500 to 1000 nM

====

Assay notes: In vivo PK in mice (IV and PO)
Experimental context: male, C57BL/6, mouse, plasma, IV 3 mg/kg
Result type: half-life (h)
Just the number in h, nothing appended.

What does the data say about its half-life? Entry: Cc1cc(-c2ccc(F)cc2)ccc1C1CCCN(C2CCCC2)C1 (stereo not shown)
4.8

====

Assay notes: Microsomal stability analysis, human
Type: in vitro ADME
Experimental context: pH 7.4; human liver microsomes, 1 μM test compound; read-out: Microsomal Stability t1/2
// reported half-life at 1 μM for each item listed
Just the number in h, nothing appended.

{"columns": ["Compound", "half-life at 1 μM / h"],
 "data": [
  ["Fc1ccc(-c2ccc(C3CCCN(CC4CCCC4)C3)cc2)cc1 (centres unmarked)", 1.43]
]}

What does the data say about its half-life at 1 μM? Entry: c1ccc(-c2ccc(C3CCCN(CC4CCCC4)C3)cc2)cc1 (centres unmarked)
0.367

====

Measured on: PCSK9 (Homo sapiens)
Construct: purchased Cayman Chemical 20631
Assay notes: LDLR flow cytometric analysis (LDLR recovery in cells treated with recombinant PCSK9)
Assay type: cell-based
Method: […] Cells were analyzed for both cell viability marker (dead cells) and LDLR in live cells using a flow cytometer per the manufacturer's operating manual. […]
// reported EC50 for each item listed

Worked examples follow.
{"columns": ["Compound", "Result"],
 "data": [
  ["Clc1ccc(-c2ccc(C3CCCN(CC4CCCC4)C3)cc2)cc1 (centres unmarked)", "> 5 µM"],
  ["Fc1ccc(-c2ccc(C3CCCN(Cc4ccccc4)C3)cc2)cc1 (centres unmarked)", "> 5 µM"],
  ["Fc1ccc(-c2ccc(C3CCCN(CC4CCCC4)C3)cc2)cc1 (centres unmarked)", "1 to 5 µM"],
  ["c1ccc(-c2ccc(C3CCCN(CC4CCCC4)C3)cc2)cc1 (centres unmarked)", "1 to 5 µM"],
  ["Fc1ccc(-c2ccc(C3CCCN(CC4CC4)C3)cc2)cc1 (centres unmarked)", "1 to 5 µM"],
  ["c1cc(-c2ccc(C3CCCN(CC4CCCC4)C3)cc2)ccn1 (centres unmarked)", "1 to 5 µM"]
]}

Lab note: need EC50 for c1ccc(-c2ccc(C3CCCN(C4CCCC4)C3)cc2)cc1 (centres unmarked) on PCSK9 (Homo sapiens), anyone have it?
1 to 5 µM

Now consider FC(F)(F)c1ccc(-c2ccc(C3CCCN(CC4CCCC4)C3)cc2)cc1 (centres unmarked) .
< 1 µM

====

// reported EC50 for each item listed
Measured on: PCSK9 (Homo sapiens)
Construct: purchased Cayman Chemical 20631
Assay notes: Fluorescent-LDL uptake analysis by flow cytometric analysis
Type: cell-based

{"columns": ["Molecule", "Result"],
 "data": [
  ["FC(F)(F)c1ccc(-c2ccc(C3CCCN(CC4CCCC4)C3)cc2)cc1 (stereo not shown)", "< 0.5 µM"],
  ["Cc1cc(-c2ccc(F)cc2)ccc1C1CCCN(C2CCCC2)C1 (stereo not shown)", "0.5 to 1 µM"],
  ["Cc1cc(-c2ccc(Cl)cc2)ccc1C1CCCN(CC2CCCC2)C1 (stereo not shown)", "0.5 to 1 µM"]
]}

What does the data say about its EC50? Entry: c1ccc(-c2ccc(C3CCCN(CC4CCCC4)C3)cc2)cc1 (stereo not shown)
0.5 to 1 µM

====

Assay notes: Microsomal stability analysis, human
Assay type: in vitro ADME
Experimental context: pH 7.4; human liver microsomes, 1 μM test compound; read-out: Microsomal Stability t1/2
// reported half-life at 1 μM for each item listed

Worked examples follow.
{"columns": ["Compound", "half-life at 1 μM"],
 "data": [
  ["FC(F)(F)c1ccc(-c2ccc(C3CCCN(CC4CCCC4)C3)cc2)cc1 (stereo not drawn) [Compound 1,011]", "> 120 min"],
  ["Fc1ccc(-c2ccc(C3CCCN(CC4CC4)C3)cc2)cc1 (stereo not drawn) [Compound 1,001]", "> 120 min"]
]}

Note: attention shifts to another entry.
What does the data say about its half-life at 1 μM? Entry: Clc1ccc(-c2ccc(C3CCCN(CC4CCCC4)C3)cc2)cc1 (stereo not drawn) [Compound 1,010]
> 120 min
